apparent KD of MS2 coat protein overview
System: MS2 coat protein
Experiment: apparent KD of MS2 coat protein; designed switch direction (-1 OFF switch, 1 ON switch): -1; higher = weaker reporter binding
Details: input ligand: none
Write the value in nM as a bare number.

GAAUAGAGAGGAUAUGCGUAGUAGGUAGUAAGAUAUAUAUGACAUGAGGAUCACCCAUGUAGAAGGCUCAGAUA [EX2 #2] (Eterna round: R97, puzzle: Exclusion 2): 35.8
AAACCCUGAGGAUAUACAUAACAACAAACCCUCACGUGCCAACAUGAGGAUCACCCAUGUAGAAGGCAGGCCAA [Mod R3 Insanara 6 - Jieux - Exclusion 2] (Eterna round: R97, puzzle: Exclusion 2): 18.7
GAAGUAUGAGUUAGGAUAUGAUGAUUUUUAUUAAAUCAGAAGGAACUUGAGGAUCACCCAAGUAAAGAAUUGGU [JR_BMEx4_Sub070] (Eterna round: R97, puzzle: Brourd's mod of Exclusion 4): 15.6
UUGUUAUAUGUAGGAUAUGCGUAUUAUUAUUAUGCAGAAGGACAUGAGGAUCACCCAUGUGUAUUAUUAUUAUAUAUUAUAUAU [Title] (Eterna round: R96, puzzle: Exclusion NG 1): 21.1
CUUUACAAGCUAAGAUCCUACAUGAGGAUCACCCAUGUGGUCCGGUGACGUGAGUCACCGGACUUAGCUCGUCUUGG [salish99_S_TOV1_R5_095] (Eterna round: R97, puzzle: Sensor, turn-off variant 1): 32.2

[Q] // fetch apparent KD of MS2 coat protein given entry CAGUACUGAGGAUAUACAUGAGGAUCACCCAUGUGUCUAAUAUUAGGAAACUAGGUAUGUAGAAGGCAGUACUG [Omei Ex3 Mod of Eli 4.27 v6] (Eterna round: R97, puzzle: Exclusion 3)
[A] 36.1

[Q] // fetch apparent KD of MS2 coat protein given entry AAAUAGAAUGAGGAUAUCGAAUUAUAUAUAGUACGAGAAGGCAUUACAUGAGGAUCACCCAUGUUUUGUUGGGA [JR_Ex6_Sub001] (Eterna round: R97, puzzle: Exclusion 6)
[A] 27.6

[Q] // fetch apparent KD of MS2 coat protein given entry AACCUGAGGCAAAGCUUUAGGUGUACAUGAGGAUCACCCAUGUAGGAUAUGGUAGGCAAAGCUUACCAGAAGGACAUAAAGGUU [Mat - Exclusion NG 3 - Mod of JL - D45] (Eterna round: R96, puzzle: Exclusion NG 3)
[A] 47.7

[Q] // fetch apparent KD of MS2 coat protein given entry UGAAUAAUAGUAAGGAUAUCAGCCGCGAAAGUGGCUGAGAAGGUACAUGAGGAUCACCCAUGUGAAAUAAGAAU [Mod of Zala 19 - Jieux - Brourd's Mod of Exclusion 4] (Eterna round: R97, puzzle: Brourd's mod of Exclusion 4)
[A] 19.8
